Measured growth yield accompanies every entry in the list below.
System: Trichoderma virens ATCC 9645
Experiment: growth yield (OD600) relative to untreated control; higher = less growth inhibition
Conditions: compound concentration: 100 uM; 72 h
Where a name gives a salt, the structure may show the parent alone. Among all 1,300 compounds or so, about 75 (6%) showed an effect of 50% or more. The sample holds strong results, similar compounds and a random draw of the others, so the mix is not that of the screen.
measured attribute: growth yield (%)

CSc1ccc2c(c1)C(N1CCN(C)CC1)Cc1ccccc1S2 (stereo not given) [Methiothepin maleate] : 75.4
CSc1ccc2c(c1)N(CCC1CCCCN1C)c1ccccc1S2 (stereo not given) [Thioridazine hydrochloride] : 83
O=C(CCCN1CCC(O)(c2ccc(Br)cc2)CC1)c1ccc(F)cc1 [Bromperidol] : 105
CCN1CCC[C@H]1CNC(=O)c1c(OC)ccc(Br)c1OC [Remoxipride Hydrochloride] : 102
Oc1c(I)cc(Cl)c2cccnc12 [Clioquinol] : 12.9

Data provenance is the supplement of paper PMC8007513.
